For each entry below, report its IC50 value.
Target: monoamine oxidase B (MAO-B) (Rattus norvegicus, UniProt P19643)
Sequence (P19643 1-520): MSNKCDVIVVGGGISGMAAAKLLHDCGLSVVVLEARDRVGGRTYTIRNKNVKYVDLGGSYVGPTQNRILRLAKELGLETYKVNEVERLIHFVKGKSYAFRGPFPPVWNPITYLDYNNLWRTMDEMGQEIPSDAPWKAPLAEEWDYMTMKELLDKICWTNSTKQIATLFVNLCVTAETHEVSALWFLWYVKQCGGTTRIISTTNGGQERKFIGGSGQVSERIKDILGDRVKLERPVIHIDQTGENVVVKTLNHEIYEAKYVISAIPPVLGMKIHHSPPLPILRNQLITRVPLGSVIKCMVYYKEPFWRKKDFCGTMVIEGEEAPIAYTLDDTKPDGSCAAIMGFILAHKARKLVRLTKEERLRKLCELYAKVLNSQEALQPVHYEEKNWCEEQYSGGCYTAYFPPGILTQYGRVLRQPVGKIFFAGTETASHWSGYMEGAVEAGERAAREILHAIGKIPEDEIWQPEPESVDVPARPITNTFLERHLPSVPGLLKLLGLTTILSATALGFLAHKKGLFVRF
Respond with the bare value in µM.

What does the record list as IC50 for O=C(Oc1ccc2c(c1)CN(CC1CC1)CC2)N1CCOCC1 [Compound 12d] ?
18.5

What does the record list as IC50 for C#CCN1CCc2ccc(OC(=O)N(C)CC)cc2C1 [Compound 11a] ?
21.5

What does the record list as IC50 for C#CCN1CCc2ccc(OC(=O)N3CCCCC3)cc2C1 [Compound 11c] ?
15.7
